Please go through the items and note down their apparent KD of MS2 coat protein.
- System: MS2 coat protein
- Test Name: apparent KD of MS2 coat protein; higher = weaker reporter binding
- Conditions Used: Eterna round: R101; input ligand: FMN 200 uM
Give just the numeric value; nM need not be written.

Need apparent KD of MS2 coat protein of UUGGACGUCGUAGGAUAUGUAGGAUAUUCCUACAUGAGGAUCACCCAUGUUUACAUGGAAGAAGGACAGAAGGACGAUGUCCAU (puzzle (switch architecture): Same State NG 2) , thanks.
5.73

Need apparent KD of MS2 coat protein of GUCAGCUCGUGAGGAUAUACAUCACUGCUUCGGCAGUGUAUUAAGAUCACAUGAGGAUCACCCAUGUAGAAGGCACGAGCUGAU [#SameSwitchNG2InvertedNG3 NG2 A1] (puzzle (switch architecture): Exclusion NG 2) , thanks.
201

Need apparent KD of MS2 coat protein of AGGUAUACUUAGAAGGCGUGGACGAAACGUCCACGAGGAUAUGAGGAUCACCCAUAUCAGGUCAGCCUGCAAAGCAGGCUGACC [#SharedSequence - IExNG1: 8-2] (puzzle (switch architecture): Inverted Exclusion NG 1) , thanks.
43.9

Need apparent KD of MS2 coat protein of UGCUAACUGUAGAAGGGUGACAUGAGGAUCACCCAUGUGCACGCGCGAUUUACGGCGCGCGUGCCACAGGAUAUACAGUUUAGU [Atquar] (puzzle (switch architecture): Inverted Same State NG 2) , thanks.
34.3

Need apparent KD of MS2 coat protein of AAAUAACUUGAAGGAUAUCAGGGUGCACCUCAGUAAAACUGAGGUGCACCCUGAGAAGGUCGAGGAUCACCCGAUCUAAAUAAA [#SharedSequence SLExNG1: 3-2] (puzzle (switch architecture): Small Loop Exclusion NG 1) , thanks.
13.5

Need apparent KD of MS2 coat protein of CCGACGCCUCAGAAGGCACUCGCAUAAUGCGAGUGAGGAUAUGAGGAUCACCCAUAUCAACGUCGGAGUCACCGAAACGGUGAC [#SharedSequence - IEx NG 1-2] (puzzle (switch architecture): Inverted Exclusion NG 1) , thanks.
78.1

Need apparent KD of MS2 coat protein of GGCAGCCUUCAGAAGGGAGUGCGAUAAUCGCACUCAGGAUAUGAGGAUCACCCAUAUCAAGCUGCCACUGAGGCAAAGCCUCAG [#SharedSequence - IEx NG 2-1] (puzzle (switch architecture): Inverted Exclusion NG 1) , thanks.
12.1

Need apparent KD of MS2 coat protein of GGAGAUACAUGAGGAUCACCCAUGUAGGAUAUCGGGCCCAUAUACGGCGAAAGCCGUAUAUGGGCCGAGAAGGGCGUACACACC [#LOL-7] (puzzle (switch architecture): Small Loop Exclusion NG 3) , thanks.
7.96

Need apparent KD of MS2 coat protein of GUGAGGCAUCUACACGCUCGGGCCGAGGAUAUACAUGAGGAUCACCCAUGUAACAGUGCGGUCAUGUAGAAGGCGGCUAAAUUA [Rianrare] (puzzle (switch architecture): Small Loop Exclusion NG 3) , thanks.
42.3

Need apparent KD of MS2 coat protein of GGAGAUACAUGAGGAUCACCCAUGUAGGAUAUAUAGUAUAUAUAUAUCGAAAGAUAUAUAUAUAUAUAGAAGGGCGUGCACACC [#LOL-16] (puzzle (switch architecture): Small Loop Exclusion NG 3) , thanks.
6.74

Need apparent KD of MS2 coat protein of AAAUAACUUGAAGGAUAUGACCCUCGAGGUGACUAAAAGUCACCUCGAGGGUCAGAAGGUCGAGGAUCACCCGAUCUAAAUAAA [#SharedSequence SLExNG1: 3-1] (puzzle (switch architecture): Small Loop Exclusion NG 1) , thanks.
24.6

Need apparent KD of MS2 coat protein of CAACUGGCACAGAAGGGUGACAUGAGGAUCACCCAUGUAGCGUGGCACUCAGGAGGAGCCACGCCACAGGAUAUGUGCCGACAC [Beisreriar] (puzzle (switch architecture): Inverted Same State NG 2) , thanks.
45.7

Data origin, for the record: the supplement of paper PMC9170038
